- experimental system: T1, human tenascin-C rCd4-His-FBG (rat; human, UniProt P05540 207-392, limits assumed)
- T1 construct: domain: domains 3 and 4; C-terminal FBG fusion; biotinylated in the ELISA and HTRF screens; also called Hu TNC; human TNC rCd4-His-FBG; not shown: 6His tag
- T1 sequence (chain (part 1 of 2)): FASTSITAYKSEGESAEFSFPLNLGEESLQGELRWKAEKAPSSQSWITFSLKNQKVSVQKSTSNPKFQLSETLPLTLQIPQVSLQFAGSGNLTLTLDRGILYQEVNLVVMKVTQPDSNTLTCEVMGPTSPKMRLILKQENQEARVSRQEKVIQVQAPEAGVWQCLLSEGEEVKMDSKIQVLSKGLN
- T1 sequence (chain (part 2 of 2)): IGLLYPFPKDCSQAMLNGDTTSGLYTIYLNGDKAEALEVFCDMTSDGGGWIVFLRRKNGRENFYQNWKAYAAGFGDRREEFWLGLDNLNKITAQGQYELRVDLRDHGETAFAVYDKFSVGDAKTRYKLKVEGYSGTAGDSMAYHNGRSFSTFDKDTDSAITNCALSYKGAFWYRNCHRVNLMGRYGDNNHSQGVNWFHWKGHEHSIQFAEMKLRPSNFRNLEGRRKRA
- test name: HTRF competition; competitor d2-labelled B12 IgG
property measured: % inhibition of FRET signal

binder | % inhibition of FRET signal
161_01_C11 scFv (scFv, V domains shown, not shown: small tags and cut ends, E. coli supernatant scFv) VH: EVRLVQSGAEVKKPGASVKVSCKVSGYTLTELSMHWVRQAPGKGLEWMGGFDPEDGETIYAQKFQGRVTMTEDTSTDTAYMELSSLRSEDTAVYYCATAQKEWLPDVTWGQGTLVTVSS VL: DIQMTQSPASLPTSVGDRVTITCRASQYIQGFLNWYQQKPGKAPRLLIYAASTLQDGVPSRFSGSGYGTDFTLTISSLQPEDFATYYCQQSYSTPWTFGQGTKVEIK | ≥ 90%

% inhibition of FRET signal in this record for 161_01_H10 scFv (scFv, V domains shown, not shown: small tags and cut ends, E. coli supernatant scFv) VH: EVRLVQSGAEVKKPGASVKVSCKVSGYTLTELSMHWVRQAPGKGLEWMGGFDPEDGETIYAQKFQGRVTMTEDTSTDTAYMELSSLRSEDTAVYYCATAQPVWAPGTYWGQGTLVTVSS VL: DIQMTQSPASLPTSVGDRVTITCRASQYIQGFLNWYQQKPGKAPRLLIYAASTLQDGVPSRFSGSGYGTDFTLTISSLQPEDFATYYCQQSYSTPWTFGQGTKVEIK : ≥ 90%
